Molecular target: Protein Mdm4 (Homo sapiens) + E3 ubiquitin-protein ligase Mdm2 (Homo sapiens) (UniProt O15151+Q00987)
Sequence (O15151 whole entry, looked up): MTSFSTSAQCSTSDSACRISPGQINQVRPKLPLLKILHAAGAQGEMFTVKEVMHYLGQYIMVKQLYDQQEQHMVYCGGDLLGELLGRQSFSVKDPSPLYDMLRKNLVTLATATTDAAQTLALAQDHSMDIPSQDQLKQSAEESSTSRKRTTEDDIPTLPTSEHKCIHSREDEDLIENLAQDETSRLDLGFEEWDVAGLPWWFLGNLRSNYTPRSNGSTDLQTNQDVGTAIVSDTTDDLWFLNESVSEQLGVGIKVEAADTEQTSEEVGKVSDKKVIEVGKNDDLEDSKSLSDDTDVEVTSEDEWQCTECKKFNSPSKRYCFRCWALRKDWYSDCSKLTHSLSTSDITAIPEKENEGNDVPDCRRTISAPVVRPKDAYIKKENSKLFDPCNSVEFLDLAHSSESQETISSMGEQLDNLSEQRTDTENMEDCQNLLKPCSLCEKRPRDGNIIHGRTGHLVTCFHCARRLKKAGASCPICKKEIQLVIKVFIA
Sequence (Q00987 whole entry, looked up): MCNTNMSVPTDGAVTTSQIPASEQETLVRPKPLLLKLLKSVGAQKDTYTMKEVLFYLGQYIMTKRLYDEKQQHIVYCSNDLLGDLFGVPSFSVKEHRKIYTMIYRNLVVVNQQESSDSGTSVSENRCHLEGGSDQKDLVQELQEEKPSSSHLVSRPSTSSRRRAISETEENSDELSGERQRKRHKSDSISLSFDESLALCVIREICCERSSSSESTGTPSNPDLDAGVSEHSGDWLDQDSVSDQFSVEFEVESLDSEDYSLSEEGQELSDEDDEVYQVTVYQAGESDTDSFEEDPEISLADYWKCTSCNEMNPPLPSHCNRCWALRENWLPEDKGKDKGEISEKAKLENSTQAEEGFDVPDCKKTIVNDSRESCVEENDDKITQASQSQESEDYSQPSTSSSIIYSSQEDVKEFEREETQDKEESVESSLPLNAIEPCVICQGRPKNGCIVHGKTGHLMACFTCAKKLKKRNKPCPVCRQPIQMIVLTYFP
Test: inhibitors of human Mdm2-MdmX association, primary screen, cell-based, luminescence, split luciferase, SaOS-2, uHTS (AID 485346)
Conditions: SaOS-2 split-luciferase Mdm2/MdmX complementation, at 8 µM
Among all 330,000 compounds or so, about 10,000 (3%) were called active.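 How the source made its calls: active means inhibition of at least 50% at 8 µM in the primary screen; inactive means the rest.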 For the sample, actives were picked, then their nearest neighbours and some compounds at random.
Pick one: active, inactive

Take a look at these entries with their results.
// query What outcome does the record of this test show for COc1ccc(CCNC(=O)C2CCCN(S(=O)(=O)c3ccc(OC)cc3)C2)cc1 (stereo not drawn) ?
// result inactive

// query Repeat for the following compound: Cc1cccc(N(CC(=O)N=Nc2c(O)[nH]c3ccccc23)S(C)(=O)=O)c1C
// result inactive

// query Repeat for the following compound: c1ccc(-c2cnc(CN3CCN(c4ccccc4)CC3)o2)cc1
// result inactive

// query Repeat for the following compound: CCN(CC)S(=O)(=O)c1ccc2c3c(cccc13)C(=O)S2
// result inactive

// query Repeat for the following compound: CCN1C(=NCc2ccc(OC)cc2)N[C@@H](CCc2ccccc2)[C@H](C(=O)NCc2ccc(OC)cc2)[C@H]1C
// result inactive

// query Repeat for the following compound: COc1ccc(NC(=O)NC2CC3CCCC(C2)N3Cc2ccccc2)cc1 (stereo not drawn)
// result inactive

// query Repeat for the following compound: CSc1ccccc1NC(=O)COC(=O)CCCOc1ccc(C)cc1
// result inactive

// query Repeat for the following compound: O=C(O)CN(Cc1ccco1)S(=O)(=O)c1ccc(F)cc1
// result inactive

Continuing:
// query What outcome does the record of this test show for NC(=O)c1sc2nc3c(c(-c4ccccc4)c2c1N)CCC3 ?
// result active

// query Repeat for the following compound: CC(=O)c1cc(CN2CCC(C(=O)Nc3cccc(-c4cscn4)c3)CC2)cs1
// result inactive

// query Repeat for the following compound: CCn1cc(CN2CCC(C(=O)Nc3cccc(-c4cccc(Cl)c4)c3)CC2)cn1
// result active

// query Repeat for the following compound: COCc1[nH]nc2c1C(C1C=CCCC1)C(C#N)=C(N)O2 (stereo not drawn)
// result inactive

// query Repeat for the following compound: O=C(NC1CCCC1)C1CCN(C(=O)Nc2cccc(Cl)c2)CC1
// result inactive
